B1: Pistol ribozyme (parent)
chain: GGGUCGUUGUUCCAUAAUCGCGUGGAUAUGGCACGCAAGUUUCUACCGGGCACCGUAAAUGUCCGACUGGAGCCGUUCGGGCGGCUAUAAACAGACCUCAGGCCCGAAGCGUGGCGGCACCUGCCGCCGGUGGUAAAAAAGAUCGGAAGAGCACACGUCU

- Variants of: B1
- TEST METHOD NOTES: aptazyme ON/OFF ratio, guanine; higher = stronger switching; co-transcriptional cleavage with and without guanine
variants and their reported aptazyme ON/OFF ratio

{"columns": ["VARIANT NAME", "aptazyme ON/OFF ratio"],
 "data": [
  ["U7G U8C G9C U10C U11A C12U", 1.06],
  ["U7A G9C U10A U11G C12A C13G", 1.07],
  ["U8C G9C U10A C13G", 1.16],
  ["U8G G9A U11C C13A", 1.07],
  ["U7G U8G U11C C13G", 1.27],
  ["U8G G9C U10A U11A", 1.18],
  ["U7G U8C G9A U10G U11C", 1.04],
  ["U7A U8G G9C U10G U11A C12G C13G", 1.39],
  ["G9U U11A C12A", 2.63],
  ["U7C U8C U10C U11A C13A", 1.33],
  ["U8C U10C U11A C12U C13U", 1.35]
]}
